SYSTEM: SUMO (Homo sapiens)
EXPERIMENT: SUMO activity (Table I, biological activities)
Type: biochemical
Parameters: key: + (less active); ++ (active); +++ (most active)
PARAMETER: SUMO

Some solved cases for reference:
{"COMPOUND": "COC(=O)C1=C(C(=O)Nc2ccc(OCCN3CCCC3)cc2)C2C=CC1(C(Cc1ccccc1)Nc1ccccc1)O2 (stereo not drawn)", "SYSTEM": "SUMO (Homo sapiens)", "SUMO": "++"}
{"COMPOUND": "CCN(CC)CCNC(=O)C1=C(C(=O)OC)C2(C(Cc3ccccc3)Oc3ccccc3)C=CC1O2 (stereo not drawn)", "SYSTEM": "SUMO (Homo sapiens)", "SUMO": "++"}
{"COMPOUND": "COC(=O)C1=C(C(=O)Nc2ccc(OCCN(C)C)cc2)C2C=CC1(C(Cc1ccccc1)Nc1ccccc1)O2 (stereo not drawn)", "SYSTEM": "SUMO (Homo sapiens)", "SUMO": "+++"}
{"COMPOUND": "COC(=O)C1=C(C(=O)O)C2(C(Cc3ccccc3)Nc3cc(F)cc(F)c3)C=CC1O2 (stereo not drawn)", "SYSTEM": "SUMO (Homo sapiens)", "SUMO": "+"}
{"COMPOUND": "CCOC(=O)C1=C(C(=O)NC2CCN(C)CC2)C2(CO)C=CC1(C(Cc1ccccc1)Nc1ccccc1)O2 (stereo not drawn)", "SYSTEM": "SUMO (Homo sapiens)", "SUMO": "++"}

State its SUMO on SUMO (Homo sapiens): COC(=O)C1=C(C(=O)NC2CCCCC2)C2C=CC1(C(Cc1ccccc1)Nc1ccccc1)O2 (stereo not drawn)
+

State its SUMO on SUMO (Homo sapiens): COC(=O)C1=C(C(=O)NNc2ccccc2)C2(C)C=CC1(C(Cc1ccccc1)Nc1ccccc1)O2 (stereo not drawn)
++

State its SUMO on SUMO (Homo sapiens): COC(=O)C1=C(C(=O)OC)C2(C(Cc3ccc(CCO)cc3)Nc3ccccc3)C=CC1O2 (stereo not drawn)
++

State its SUMO on SUMO (Homo sapiens): COC(=O)C1=C(C(=O)NC2CCN(CCO)CC2)C2C=CC1(C(Cc1ccccc1)Nc1ccccc1)O2 (stereo not drawn)
+++

State its SUMO on SUMO (Homo sapiens): COC(=O)C1=C(C(=O)OC)C2(C(Cc3ccccc3)Nc3ccccc3)C=CC1(c1ccccc1)O2 (stereo not drawn)
+

State its SUMO on SUMO (Homo sapiens): COC(=O)C1=C(C(=O)NCCN(C)C)C2C=CC1(C(Cc1ccccc1F)Nc1cc(F)cc(F)c1)O2 (stereo not drawn)
++

State its SUMO on SUMO (Homo sapiens): CCN(CC)CCNC(=O)C1=C(C(=O)OC)C2(C(Cc3ccccc3)Nc3ccc(F)cc3)C=CC1O2 (stereo not drawn)
++

State its SUMO on SUMO (Homo sapiens): COC(=O)C1=C(C(=O)NCCN(C)C)C2C=CC1(C(Cc1ccc(C(F)(F)F)cc1)Nc1ccccc1)O2 (stereo not drawn)
++

State its SUMO on SUMO (Homo sapiens): C=CCCC(Nc1ccccc1)C12C=CC(O1)C(C(N)=O)=C2C(=O)OC (stereo not drawn)
+

State its SUMO on SUMO (Homo sapiens): CCOC(=O)C1=C(C(=O)NC2CCN(C)CC2)C2CCC1(C(Cc1ccccc1)Nc1ccc(F)cc1F)O2 (stereo not drawn)
+

State its SUMO on SUMO (Homo sapiens): COC(=O)C1=C(C(=O)Nc2ccn(C)n2)C2C=CC1(C(Cc1ccccc1)Nc1ccccc1)O2 (stereo not drawn)
++

State its SUMO on SUMO (Homo sapiens): COC(=O)C1=C(C(=O)NC2CCN(C(=O)c3ccc(F)cc3)CC2)C2C=CC1(C(Cc1ccccc1)Nc1ccccc1)O2 (stereo not drawn)
++

State its SUMO on SUMO (Homo sapiens): COC(=O)C1=C(C(=O)Nc2ccc(OC)nc2)C2C=CC1(C(Cc1ccccc1)Nc1cc(F)cc(Cl)c1)O2 (stereo not drawn)
+++

State its SUMO on SUMO (Homo sapiens): COC(=O)C1=C(C(=O)NC2CCN(C)CC2)C2C=CC1(C(Cc1ccccc1)Nc1ccccc1)O2 (stereo not drawn)
+++

State its SUMO on SUMO (Homo sapiens): COC(=O)C1=C(C(=O)OC)C2(C(Cc3ccc(OCC(C)C)cc3)Nc3ccccc3)C=CC1O2 (stereo not drawn)
++

State its SUMO on SUMO (Homo sapiens): COC(=O)C1=C(C(=O)OC)C2(C(Cc3ccccc3)Nc3ccccc3F)C=CC1O2 (stereo not drawn)
++

State its SUMO on SUMO (Homo sapiens): COC(=O)C1=C(C(=O)OC)C2(C(Cc3cccc(Cl)c3)Nc3ccccc3)C=CC1O2 (stereo not drawn)
++

State its SUMO on SUMO (Homo sapiens): COC(=O)C1=C(C(=O)NCCN2CCOCC2)C2C=CC1(C(Cc1ccccc1)Oc1ccccc1)O2 (stereo not drawn)
++

State its SUMO on SUMO (Homo sapiens): CCOC(=O)C1=C(C(=O)Nc2ccc(F)cc2)C2C=CC1(C(Nc1ccccc1)c1ccc(CN3CCOCC3)cc1)O2 (stereo not drawn)
++

State its SUMO on SUMO (Homo sapiens): COC(=O)C1=C(CO)C2C=CC1(C(Cc1ccccc1)Oc1ccccc1)O2 (stereo not drawn)
+

State its SUMO on SUMO (Homo sapiens): CNC(=O)Cc1ccc(CC(Nc2ccccc2)C23C=CC(O2)C(C(=O)OC)=C3C(=O)OC)cc1 (stereo not drawn)
++

State its SUMO on SUMO (Homo sapiens): COCCNC(=O)C1=C(C(=O)OC)C2(C(Cc3ccccc3)Nc3ccccc3)C=CC1O2 (stereo not drawn)
++

State its SUMO on SUMO (Homo sapiens): COC(=O)C1=C(C(=O)Nc2ccccc2)C2C=CC1(C(Cc1ccccc1)Nc1ccccc1)O2 (stereo not drawn) [Compound 300]
+++

State its SUMO on SUMO (Homo sapiens): COC(=O)C1=C(C(=O)Nc2ccc(OC)cc2)C2C=CC1(C(Cc1ccccc1)Nc1cccc(Oc3ccccc3)c1)O2 (stereo not drawn)
+++

State its SUMO on SUMO (Homo sapiens): COC(=O)C1=C(C(=O)OC)C2(C(Cc3ccccc3Br)Nc3ccccc3)C=CC1O2 (stereo not drawn)
++

###

SYSTEM: UniProt O95352
Sequence (O95352 whole entry, species assumed): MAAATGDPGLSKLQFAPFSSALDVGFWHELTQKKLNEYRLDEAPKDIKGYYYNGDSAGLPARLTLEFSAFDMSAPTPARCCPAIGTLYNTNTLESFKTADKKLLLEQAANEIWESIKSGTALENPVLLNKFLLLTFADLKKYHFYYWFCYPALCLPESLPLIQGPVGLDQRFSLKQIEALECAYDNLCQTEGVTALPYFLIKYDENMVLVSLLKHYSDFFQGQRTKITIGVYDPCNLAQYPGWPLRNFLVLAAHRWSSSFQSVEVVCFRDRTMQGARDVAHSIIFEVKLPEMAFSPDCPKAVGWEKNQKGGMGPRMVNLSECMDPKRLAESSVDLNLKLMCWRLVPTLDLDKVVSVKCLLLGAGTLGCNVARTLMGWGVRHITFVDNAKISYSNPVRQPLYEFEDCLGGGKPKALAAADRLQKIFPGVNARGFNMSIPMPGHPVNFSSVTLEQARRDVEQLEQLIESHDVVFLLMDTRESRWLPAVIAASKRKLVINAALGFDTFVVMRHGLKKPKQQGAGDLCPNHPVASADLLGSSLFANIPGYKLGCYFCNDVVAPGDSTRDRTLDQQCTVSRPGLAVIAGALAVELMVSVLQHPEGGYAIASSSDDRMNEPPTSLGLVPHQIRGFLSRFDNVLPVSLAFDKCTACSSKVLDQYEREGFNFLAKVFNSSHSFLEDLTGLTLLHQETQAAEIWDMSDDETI
EXPERIMENT: Atg7 activity (Table I, biological activities)
Assay type: biochemical
Parameters: key: + (less active); ++ (active); +++ (most active)
PARAMETER: Atg7

Some solved cases for reference:
{"COMPOUND": "COC(=O)C1=C(C(=O)NCCN2CCCCC2)C2C=CC1(C(Cc1ccccc1)Nc1ccccc1)O2 (stereo not drawn) [Compound 462]", "RECORDED VALUE": "++"}
{"COMPOUND": "CCOC(=O)C1=CC2OC1(C(c1ccccc1)N(C(=O)C(F)(F)F)c1ccccc1)c1ccccc12 (stereo not drawn) [Compound 585]", "RECORDED VALUE": "+"}
{"COMPOUND": "COC(=O)C1=C(C(=O)NCCN2CCN(C)CC2)C2C=CC1(C(Cc1ccccc1)Nc1ccccc1)O2 (stereo not drawn) [Compound 463]", "RECORDED VALUE": "++"}
{"COMPOUND": "COC(=O)C1=C(CO)C2(C)C=CC1(C(Cc1ccccc1)Oc1ccccc1)O2 (stereo not drawn) [Compound 626]", "RECORDED VALUE": "++"}
{"COMPOUND": "COC(=O)C1=C(CO)C2C=CC1(C(Cc1ccccc1)Oc1ccccc1)O2 (stereo not drawn) [Compound 584]", "RECORDED VALUE": "++"}

Next:
Return reported Atg7; argument: COC(=O)C1=C(C(=O)NCCN(C)C)C2(C)C=CC1(C(Cc1ccccc1)Nc1ccccc1)O2 (stereo not drawn) [Compound 619]
+

###

SYSTEM: SUMO (Homo sapiens, UniProt Q9UBT2)
Sequence (Q9UBT2 whole entry): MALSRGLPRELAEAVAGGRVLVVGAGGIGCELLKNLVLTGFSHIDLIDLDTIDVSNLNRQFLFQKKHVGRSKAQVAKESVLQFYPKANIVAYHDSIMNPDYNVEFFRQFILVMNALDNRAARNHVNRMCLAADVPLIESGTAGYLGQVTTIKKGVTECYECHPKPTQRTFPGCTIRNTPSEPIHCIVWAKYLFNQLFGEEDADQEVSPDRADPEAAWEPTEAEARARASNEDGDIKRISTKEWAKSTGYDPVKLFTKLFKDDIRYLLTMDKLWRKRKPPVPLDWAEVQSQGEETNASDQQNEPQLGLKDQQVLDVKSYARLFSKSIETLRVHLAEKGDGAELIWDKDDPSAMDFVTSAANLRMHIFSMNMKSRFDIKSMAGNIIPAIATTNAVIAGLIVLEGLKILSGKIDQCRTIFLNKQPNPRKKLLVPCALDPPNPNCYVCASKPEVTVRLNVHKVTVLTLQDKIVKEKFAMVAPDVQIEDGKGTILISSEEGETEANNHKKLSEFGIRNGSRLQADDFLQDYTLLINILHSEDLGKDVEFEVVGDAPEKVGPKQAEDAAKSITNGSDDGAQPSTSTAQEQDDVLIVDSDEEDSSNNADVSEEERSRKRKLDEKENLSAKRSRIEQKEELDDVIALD
Sequence (Q9UBE0 whole entry partner): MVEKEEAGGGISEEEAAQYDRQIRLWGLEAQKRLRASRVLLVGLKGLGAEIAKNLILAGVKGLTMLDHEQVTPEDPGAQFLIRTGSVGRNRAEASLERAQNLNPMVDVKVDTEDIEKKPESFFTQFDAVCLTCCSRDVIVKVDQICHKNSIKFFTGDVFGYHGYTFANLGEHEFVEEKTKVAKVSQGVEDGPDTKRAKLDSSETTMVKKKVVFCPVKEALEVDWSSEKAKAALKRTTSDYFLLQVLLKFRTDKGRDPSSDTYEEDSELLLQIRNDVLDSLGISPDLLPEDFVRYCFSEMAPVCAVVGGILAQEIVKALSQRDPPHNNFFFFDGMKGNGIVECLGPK
EXPERIMENT: SUMO activity (Table I, biological activities)
Type: biochemical
Parameters: key: + (less active); ++ (active); +++ (most active)
PARAMETER: SUMO

{"COMPOUND": "COC(=O)C1=C(C(N)=O)C2C=CC1(C(Nc1ccccc1)C1CCC1)O2 (centres unmarked) [Compound 179]", "SUMO": "+"}
{"COMPOUND": "COC(=O)C1=C(C(=O)NC(C)C)C2C=CC1(C(Cc1ccccc1)Nc1ccccc1)O2 (centres unmarked) [Compound 153]", "SUMO": "++"}
{"COMPOUND": "COC(=O)C1=C(C(=O)NCCN2CCCC2)C2C=CC1(C(Cc1ccc(C(F)(F)F)cc1)Nc1ccccc1)O2 (centres unmarked) [Compound 440]", "SUMO": "+++"}
{"COMPOUND": "COC(=O)C1=C(C(=O)Nc2ccc(OCCN3CCN(C)CC3)cc2)C2C=CC1(C(Cc1ccccc1)Nc1ccccc1)O2 (centres unmarked) [Compound 501]", "SUMO": "+++"}
{"COMPOUND": "COC(=O)C1=C(C(=O)Nc2ccc(CN(C)C)cc2)C2OC1(C(Cc1ccccc1)Oc1ccccc1)C1OC21 (centres unmarked) [Compound 545]", "SUMO": "++"}

Return reported SUMO; argument: CCOC(=O)C1=C(C(=O)OCC)C2(C(Cc3ccccc3)Nc3c(F)cccc3F)C=CC1O2 (centres unmarked) [Compound 230]
++

Return reported SUMO; argument: CCOC(=O)C1=C(C(=O)Nc2ccc(C)c(F)c2)C2C=CC1(C(Nc1ccc(OC)cc1)c1ccc(CN3CCOCC3)cc1)O2 (centres unmarked) [Compound 621]
+

Return reported SUMO; argument: CCOC(=O)C1=C(C(=O)OCC)C2(C(Cc3ccccc3)Nc3ccc(F)cc3F)C=CC1O2 (centres unmarked) [Compound 312]
++

Return reported SUMO; argument: CCN(CC)CCNC(=O)C1=C(C(=O)OC)C2(C(Cc3ccc(C)cc3)Nc3cc(F)cc(F)c3)C=CC1O2 (centres unmarked) [Compound 430]
++

Return reported SUMO; argument: COC(=O)C1=C(C(=O)OC)C2(C(Cc3ccc(C(C)C)cc3)Nc3ccccc3)C=CC1O2 (centres unmarked) [Compound 670]
++

Return reported SUMO; argument: COC(=O)C1=C(C(=O)NC2CCN(S(C)(=O)=O)CC2)C2C=CC1(C(Cc1ccccc1)Nc1ccccc1)O2 (centres unmarked) [Compound 361]
++

Return reported SUMO; argument: CCOC(=O)C1=C(C(=O)OCC)C2(C(Cc3ccccc3)Nc3ccccc3)C=CC1(CO)O2 (centres unmarked) [Compound 265]
++

Return reported SUMO; argument: COC(=O)C1=C(C(=O)Nc2ccc(OCCN(C)C)c(F)c2)C2C=CC1(C(Cc1ccccc1)Nc1ccccc1)O2 (centres unmarked) [Compound 500]
++

Return reported SUMO; argument: COC(=O)C1=C(C(=O)NC2CCN(Cc3ccccc3)CC2)C2C=CC1(C(Cc1ccccc1)Nc1ccccc1)O2 (centres unmarked) [Compound 288]
++

Return reported SUMO; argument: CCOC(=O)C1=C(C(=O)NCCN(C)C)C2C=CC1(C(Cc1ccccc1)Nc1ccc(F)cc1F)O2 (centres unmarked) [Compound 411]
++

Return reported SUMO; argument: COC(=O)C1=C(C(=O)OC)C2(C(Cc3ccc(-c4ccccc4)cc3)Nc3ccccc3)C=CC1O2 (centres unmarked) [Compound 677]
++

Return reported SUMO; argument: COC(=O)C1=C(C(=O)Nc2ccc(C)nc2)C2CCC1(C(Cc1ccccc1)Nc1ccccc1)O2 (centres unmarked) [Compound 349]
+

Return reported SUMO; argument: COC(=O)C1=C(C(=O)Nc2ccc(OC)cc2)C2C=CC1(C(Cc1ccccc1)Oc1ccccc1)O2 (centres unmarked) [Compound 325]
++

Return reported SUMO; argument: COC(=O)C1=C(C(=O)NCCN2CCC2)C2C=CC1(C(Cc1ccccc1)Nc1ccccc1)O2 (centres unmarked) [Compound 469]
++

Return reported SUMO; argument: COC(=O)C1=C(C(=O)O)C2C=CC1(C(Cc1ccccc1)Nc1cc(F)cc(F)c1)O2 (centres unmarked) [Compound 203]
++

Return reported SUMO; argument: COc1ccc(NC(=O)C2=C(C(=O)O)C3(C(Cc4ccccc4)Nc4ccccc4)C=CC2O3)cc1 (centres unmarked) [Compound 175]
+

Return reported SUMO; argument: COC(=O)C1=C(C(=O)NC2CCN(C(=O)c3ccc(Cl)cc3)CC2)C2C=CC1(C(Cc1ccccc1)Nc1ccccc1)O2 (centres unmarked) [Compound 380]
++

Return reported SUMO; argument: COC(=O)C1=C(C(=O)Nc2ccc(OC)cc2)C2C=CC1(C(Cc1ccccc1)Oc1ccc(F)cc1)O2 (centres unmarked) [Compound 479]
++

Return reported SUMO; argument: COC(=O)C1=C(C(N)=O)C2(C)C=CC1(C(Cc1ccccc1)Nc1ccccc1)O2 (centres unmarked) [Compound 294]
++

Return reported SUMO; argument: COC(=O)C1=C(C(=O)Nc2ccc(OC)cc2)C2OC1(C(Cc1ccccc1)Oc1ccccc1)C1OC21 (centres unmarked) [Compound 522]
+

The measured values listed here are drawn from patent US11578079B2.
